RECORDED_ENDPOINT: melting point

MOLECULE: c1ccc(-c2cnc(-c3cccc4ccccc34)o2)cc1
DATA_VALUE: 104 to 106 °C

MOLECULE: O=S(=O)(Cl)c1ccc(Oc2ccccc2)nc1
DATA_VALUE: 114 to 116 °C

MOLECULE: CCCCCCC(O)CO (stereo not drawn)
DATA_VALUE: 36 to 38 °C

====

Binary call on melting point with cut-off 60 °C: strictly below means MET, and equality or higher means NOT MET.

COMPOUND: CCCCCCCCCCCCCC1CCCCC1
ASSIGNED_CLASS: MET
--
COMPOUND: C=C(C)CCCCCCCCCCCCCCCC
ASSIGNED_CLASS: MET
--
COMPOUND: O=C1c2ccccc2CC2c3ccccc3C=CN12 (stereo not given)
ASSIGNED_CLASS: NOT MET
--
COMPOUND: CCc1cccc(CC)c1N
ASSIGNED_CLASS: MET
--
COMPOUND: Nc1ccc(C(=O)O)cc1N
ASSIGNED_CLASS: NOT MET
--
COMPOUND: CC12CCC(O)CC1=CCC1C2CCC2(C)C1CCC2(C)O (stereo not given)
ASSIGNED_CLASS: NOT MET
--
COMPOUND: CCCCCCCCCCCCCCCc1ccccc1
ASSIGNED_CLASS: MET
--
COMPOUND: CC12CCC(O)CC1CCC1C2CCC2(C)C1CCC21OCCO1 (stereo not given)
ASSIGNED_CLASS: NOT MET

====

Readings of melting point for the listed compounds

COMPOUND: O=C1C=C(Cl)C(=O)O1
UNIT_STRING: °C
melting point: 33
//
COMPOUND: COc1cccc2oc(-c3ccccc3)cc(=O)c12
UNIT_STRING: °C
melting point: 130
//
COMPOUND: CC1(C)OCC(C2OC3OC(C)(C)OC3C2O)O1 (stereo not given)
UNIT_STRING: °C
melting point: 109
//
COMPOUND: O=[N+]([O-])c1ccc(Sc2ccc([N+](=O)[O-])cc2)cc1
UNIT_STRING: °C
melting point: 160
//
COMPOUND: O=C1OC(c2ccccc2)=N/C1=C\c1ccc(Br)o1
UNIT_STRING: °C
melting point: 122
//
COMPOUND: CC(C)Cc1ccc(C(C)C(=O)O)cc1 (stereo not given)
UNIT_STRING: °C
melting point: 75
//
COMPOUND: C=C(C)CCCCC
UNIT_STRING: °C
melting point: -90
//
COMPOUND: COc1ccc2c3c1OC1C(O)C=CC4C(C2)[N+](C)([O-])CCC341 (stereo not given)
UNIT_STRING: °C
melting point: 232
//
COMPOUND: CC12CCCCC1CCC1C2CCC2(C)C(OCc3ccccc3)CCC12 (stereo not given)
UNIT_STRING: °C
melting point: 160
//
COMPOUND: C=COC(C)=O
UNIT_STRING: °C
melting point: -93.2
//
COMPOUND: [O-][P+](c1ccccc1)(c1ccccc1)C1c2ccccc2Oc2ccccc21
UNIT_STRING: °C
melting point: 161

====

Would you mind labelling by melting point? At or over 200 °C is condition met, under is condition not met.

MOLECULE: CCOC(=O)C(=O)C=CN(C)C
ASSIGNED_CLASS: condition not met

MOLECULE: Cc1cc(C)c(C2Oc3c(Cl)c(Cl)c(Cl)c(Cl)c3O2)cc1C
ASSIGNED_CLASS: condition not met

MOLECULE: O=C1C(=Cc2ccccc2)CCCC1=Cc1ccccc1
ASSIGNED_CLASS: condition not met

MOLECULE: Cc1cccc(O[Si]23OCCN(CCO2)CCO3)c1
ASSIGNED_CLASS: condition not met

MOLECULE: CCN(CC)CCOCc1cc(Br)cc(Br)c1OC
ASSIGNED_CLASS: condition not met

MOLECULE: CCC(=O)OCN1C(=O)NC(c2ccccc2)(c2ccccc2)C1=O
ASSIGNED_CLASS: condition not met

MOLECULE: CC/C=C/Br
ASSIGNED_CLASS: condition not met

MOLECULE: N#CC1=C(N)n2nc(C(F)(F)F)nc2NC1c1c(Cl)cccc1Cl (stereo not given)
ASSIGNED_CLASS: condition met

MOLECULE: COC(=O)c1c(C=O)ccc(OC)c1OC
ASSIGNED_CLASS: condition not met

MOLECULE: Cc1c([N+](=O)[O-])cc(C(C)C)c(O)c1[N+](=O)[O-]
ASSIGNED_CLASS: condition not met

MOLECULE: CC12CCC(C(CCC3C(=O)C4(C)CCC3C4(C)C)C1=O)C2(C)C (stereo not given)
ASSIGNED_CLASS: condition met

MOLECULE: C=C1C(=O)OC2C1CCC(C)C1C=CC(=O)C12C (stereo not given)
ASSIGNED_CLASS: condition not met

MOLECULE: O=C(O)CCc1cc2c(cc1[N+](=O)[O-])CCC(=O)N2
ASSIGNED_CLASS: condition met

MOLECULE: Cc1onc(-c2c(F)cccc2Cl)c1C(N)=S
ASSIGNED_CLASS: condition not met

MOLECULE: COCCCl
ASSIGNED_CLASS: condition not met

MOLECULE: Cc1ccc(C(=O)NN)cc1
ASSIGNED_CLASS: condition not met

MOLECULE: CCCCCCCCCCCCCCCCCCSSCCCCCCCCCCCCCCCCCC
ASSIGNED_CLASS: condition not met

MOLECULE: CC(C)n1c(C(F)(F)F)nc2cc(C(=O)Cl)ccc21
ASSIGNED_CLASS: condition not met

MOLECULE: COC(=O)c1ccc(NC(C)=O)c(NC(C)=O)c1
ASSIGNED_CLASS: condition met

MOLECULE: ON=C1CCCCCCC1
ASSIGNED_CLASS: condition not met

MOLECULE: CON(C)C(=O)C=P(c1ccccc1)(c1ccccc1)c1ccccc1
ASSIGNED_CLASS: condition not met

MOLECULE: CC1(C)C2CCC13CS(=O)(=O)N=C3C2 (stereo not given)
ASSIGNED_CLASS: condition met

MOLECULE: O=C1NN(c2ccccc2)C(=O)C1=CNc1ccccc1
ASSIGNED_CLASS: condition met

MOLECULE: Cc1ccc2[nH]ccc2c1
ASSIGNED_CLASS: condition not met

MOLECULE: CCCOc1ccc([N+](=O)[O-])cc1NC(C)=O
ASSIGNED_CLASS: condition not met

MOLECULE: COc1ccc(C(C)=CC(=O)O)c(OC)c1
ASSIGNED_CLASS: condition not met

MOLECULE: CN(C)c1ccc(N=Nc2ccccc2)cc1
ASSIGNED_CLASS: condition not met

====

RECORDED_ENDPOINT: melting point

COMPOUND: CC(=O)Nc1ccc(C=NNC(N)=S)cc1
RECORDED_ENDPOINT: melting point
DATA_VALUE: 225 to 230 °C
//
COMPOUND: NC(=O)Nc1ccc(C2=NNC(=O)CC2)cc1
RECORDED_ENDPOINT: melting point
DATA_VALUE: 215 to 218 °C
//
COMPOUND: O=C(O)C[C@H](C(=O)O)c1ccccc1
RECORDED_ENDPOINT: melting point
DATA_VALUE: 173 to 176 °C
//
COMPOUND: O=Cc1ccc(CBr)cc1
RECORDED_ENDPOINT: melting point
DATA_VALUE: 99 to 100 °C
//
COMPOUND: CCOC(=O)/C(C#N)=C/c1ccc(O)cc1
RECORDED_ENDPOINT: melting point
DATA_VALUE: 171 to 172 °C
//
COMPOUND: N#CCC(=O)N1CCOCC1
RECORDED_ENDPOINT: melting point
DATA_VALUE: 87 to 89 °C
//
COMPOUND: O=C1CC2(CCCC2)CC(=O)N1
RECORDED_ENDPOINT: melting point
DATA_VALUE: 153 to 155 °C
//
COMPOUND: COc1cc(Br)c(CC#N)cc1OC
RECORDED_ENDPOINT: melting point
DATA_VALUE: 87 to 89 °C
//
COMPOUND: CCOC(=O)C=Cc1ccc(C=CC(=O)OCC)c(N)c1
RECORDED_ENDPOINT: melting point
DATA_VALUE: 178 °C
//
COMPOUND: COc1ccc2cc(Nc3ccc4c(c3)OCCO4)ccc2c1
RECORDED_ENDPOINT: melting point
DATA_VALUE: 102 °C
//
COMPOUND: Cc1cc2c(o1)-c1c(oc3ccccc13)CCC2(C)c1ccccc1 (stereo unspecified)
RECORDED_ENDPOINT: melting point
DATA_VALUE: 135 °C

====

In this section, each of the compounds is paired with its reported melting point.
RECORDED_ENDPOINT: melting point

STRUCTURE_STRING: N#Cc1cc([N+](=O)[O-])cc(Cl)c1N
RECORDED_ENDPOINT: melting point
DATA_VALUE: 180 to 185 °C
//
STRUCTURE_STRING: OCc1ccc(-c2ccco2)cc1
RECORDED_ENDPOINT: melting point
DATA_VALUE: 85 to 86 °C
//
STRUCTURE_STRING: O=C(Oc1ccccc1)c1ccc2ccccc2c1O
RECORDED_ENDPOINT: melting point
DATA_VALUE: 93 to 97 °C
//
STRUCTURE_STRING: COc1ccc(C(=O)O)cc1C
RECORDED_ENDPOINT: melting point
DATA_VALUE: 195 to 197 °C
//
STRUCTURE_STRING: Cc1ccc(Oc2ccc(C)cc2)cc1
RECORDED_ENDPOINT: melting point
DATA_VALUE: 51 °C
